tested on: P. falciparum Dd2 (PfLuc) line expressing firefly luciferase, asexual blood stage; assay: microbe, parasite or virus in culture; type: cell-based, Plasmodium falciparum; conditions: Plasmodium falciparum, DD2; 11-pt dose response, 96hr; read-out: P. falciparum Luciferase ABS 11-pt Reconfirmation Dose Response (96hr): Maximum inhibition (%)
As shown below, each of these compounds has a reported Emax value.
All answers are understood in %, so give the number only.

Examples from the recorded data:
compound="CC(O)CN1CCC(CNCc2cccc(C(F)(F)F)c2)CC1 (stereo not shown) [DDD01300262]" parameter=Emax measured_result=92.7
compound="CCc1cnc(N)nc1NC(C)c1ccc(C)c(C)c1 (stereo not shown) [DDD01250400]" parameter=Emax measured_result=99.6
compound="O=C(NCCc1ccccc1)NCCN1CCC(c2cccs2)CC1 [DDD01028018]" parameter=Emax measured_result=87.1
compound="COc1cc(CNCC(O)c2ccc(F)cc2F)cc2c1OCO2 (stereo not shown) [DDD01296730]" parameter=Emax measured_result=98.1
compound="O=C(c1ccc(F)c(Cl)c1)N1C[C@H]2CC[C@@H](C1)N(Cc1ccccc1)C2 [DDD01257805]" parameter=Emax measured_result=97.8

Give the measured Emax of CNc1cc(C)nc(NC2CCCN(C3Cc4ccccc4C3)C2)n1 (stereo not shown) [DDD01243506] .
100

Entry CCN(CC)CCN(C)c1nc(-c2ccc(Cl)cc2)nc2c1CNC2 [DDD01247796] has what Emax?
99.3

// query Emax value for entry Cc1c(C)n(CC(O)CN2CCN(CCO)CC2)c2c(Cl)cccc12 (stereo not shown) [DDD01034970]
95.9

Entry under review: Cc1cccnc1[C@H](C)Nc1nc(-c2cccnc2)nc2c1CNC2 [DDD01248607] . Reported Emax?
99.4

Which Emax value belongs to Cc1cnn(CCCNCc2csc(COc3ccccc3)n2)c1 [DDD01077297] ?
86.7

Could you tell me which Emax is on file for Clc1cccc2c3c([nH]c12)CCN(Cc1cc2n(n1)CCCNC2)C3 [DDD01255494] ?
99.6

* * *

Entries and their measured pIC50 follow.
target: recombinant firefly luciferase (Photinus pyralis); assay: biochemical; conditions: read-out: rLuc IC50
Sequence (P08659 whole entry): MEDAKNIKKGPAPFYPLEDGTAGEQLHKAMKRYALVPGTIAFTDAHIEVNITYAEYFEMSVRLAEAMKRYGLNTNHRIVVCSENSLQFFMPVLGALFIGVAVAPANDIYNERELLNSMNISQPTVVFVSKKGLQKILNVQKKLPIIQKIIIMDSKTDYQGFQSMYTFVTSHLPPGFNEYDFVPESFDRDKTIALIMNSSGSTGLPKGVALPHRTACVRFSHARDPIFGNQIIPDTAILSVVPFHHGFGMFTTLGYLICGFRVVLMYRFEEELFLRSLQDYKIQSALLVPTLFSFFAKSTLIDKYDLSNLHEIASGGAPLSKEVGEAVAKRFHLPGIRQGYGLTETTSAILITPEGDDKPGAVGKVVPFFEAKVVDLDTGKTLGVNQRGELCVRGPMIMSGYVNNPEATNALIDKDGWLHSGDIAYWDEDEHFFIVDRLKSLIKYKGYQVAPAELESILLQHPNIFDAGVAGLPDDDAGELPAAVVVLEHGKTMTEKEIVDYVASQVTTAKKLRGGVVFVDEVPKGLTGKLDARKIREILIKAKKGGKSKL
pIC50: −log10 of the molar value.

Answered examples (4):
molecule="CNC(=O)CCC(=O)N1CCOC(c2ccc3cc(OC)ccc3c2)C1 (centres unmarked)" target_system="recombinant firefly luciferase (Photinus pyralis)" parameter=pIC50 measured_result=4.63
molecule=CC(C)c1cc(=O)[nH]c(-n2nc(C3CC3)cc2N)n1 target_system="recombinant firefly luciferase (Photinus pyralis)" parameter=pIC50 measured_result="< 4.60"
molecule=CCS(=O)(=O)N1CCc2ccc(NC(=O)Nc3cccc(C)c3)cc21 target_system="recombinant firefly luciferase (Photinus pyralis)" parameter=pIC50 measured_result="< 4.30"
molecule=Cc1cnc(NC(=O)c2csc(NC3CCCC3)n2)s1 target_system="recombinant firefly luciferase (Photinus pyralis)" parameter=pIC50 measured_result=4.61

What does the record list as pIC50 for O=c1c2sccc2nc2n1CCN(Cc1ccccc1C(F)(F)F)CC2 ?
< 4.60

pIC50 for CCc1nc(CN2CCCN(c3ncnc4ccccc34)CC2)no1 ?
< 4.30

Look up pIC50: Cc1[nH]/c(=N\C(=O)c2csc(NC3CCCC3)n2)sc1C
4.35

* * *

test system: HepG2-A16-CD81 hepatocytes; assay: HepG2 cytotoxicity screening (CellTiter-Glo); conditions: 12pt dose response, maximum inhibition
# Lookup of reported HepG2 cytotoxicity 12pt dose response: Maximum inhibition (%) keyed by entry
Please state the figure in %; there is no need to write the unit.

Answered cases to consult:
compound=Cc1cccc(NCc2ncc(C(C)(C)C)o2)c1 measured_result=11.5
compound=CCCc1cncnc1N1CCC(NCc2cc3ccccc3[nH]2)CC1 measured_result=32.8
compound=N#Cc1c(Cl)nsc1NCC1(c2ccccc2)CCC1 measured_result=34.3
compound="CC1(c2ccccc2)CCCN(Cc2cncn2C2CCCC2)C1 (centres unmarked)" measured_result=58

Would you mind telling me what HepG2 cytotoxicity 12pt dose response: Maximum inhibition (%) value was observed for Cc1ncsc1C(=O)NC1CCN(Cc2ccc(C(F)(F)F)cc2)CC1 ?
41.9

So what's the measured HepG2 cytotoxicity 12pt dose response: Maximum inhibition (%) for this one? CCc1nc(CN2CCN(c3ncnc4cc(F)ccc34)CC2)no1
64.7

Would you mind telling me what HepG2 cytotoxicity 12pt dose response: Maximum inhibition (%) value was observed for COc1cccc(CN2CCc3nc(C(=O)NCC(C)C)sc3CC2)c1 ?
35.9

// HepG2 cytotoxicity 12pt dose response: Maximum inhibition (%) lookup, key: Cc1nc(NC(=O)c2c(-n3cnnn3)sc3c2CCCC3)sc1C
4.09

* * *

tested on: P. berghei liver stage (PbLuc); experiment: P. berghei luciferase liver stage (PbLuc) assay in HepG2-A16-CD81 hepatocytes; type: cell-based, Plasmodium berghei; details: Plasmodium berghei, HepG2-A16-CD81, 48 h, 48 h liver stage, HepG2-A16-CD81; read-out: Pbluc (EEF) IC50
Reported pIC50 is given for each of the following compounds.
By convention, pIC50 is the negative base-10 log of a molar concentration.

Some compounds with recorded pIC50:
compound="Cc1cnc(NC(=O)c2csc(NC3CCCC3)n2)s1 [DDD01026924]" measured_result=5.08
compound="CCOc1ccc(CN2CCCC(c3cc4ncccc4[nH]3)C2)cc1 (centres unmarked) [DDD01057418]" measured_result=5.24

What pIC50 value was documented for this compound, CCc1nc(CN2CCCN(c3ncnc4ccccc34)CC2)no1 [DDD01080636] ?
6.16

* * *

system: P. falciparum Dd2; experiment: SYBR green I asexual blood stage proliferation assay (96 h); type: cell-based, Plasmodium falciparum; details: Plasmodium falciparum, DD2; Sybr Green I, 11-pt dose response, 96hr; read-out: CDD P. falciparum Sybr Green I ABS 11-pt Reconfirmation Dose Response (96hr): Maximum inhibition (%)
Tag: 1 (yes) if measured Emax is not below 90%, 0 (no) if it is.

Here are 2 molecules together with their reported answers.
molecule="Cc1cccc(NC(=O)c2cccc(OCc3nnnn3C)c2)n1 [DDD01038630]" assigned_category="1 (yes)"
molecule="CC(=O)N(c1ccc(F)cc1)c1nc(CN2CCCC2C(C)C)cs1 (stereo not drawn) [DDD01075305]" assigned_category="0 (no)"

Given Cc1ccc(-c2ccc(C3CNCCO3)nc2)cc1 (stereo not drawn) [DDD01061024] , state whether its Emax is at least 90%.
1 (yes)

Form field: Emax at least 90%? Entry: NC1CCc2nc(-c3cccnc3)nc(Nc3ccc(F)cc3)c2C1 (stereo not drawn) [DDD01057099]
1 (yes)

Form field: Emax at least 90%? Entry: CCC[C@H]1CN(S(=O)(=O)c2ccc(-c3c(C)noc3C)s2)C[C@@H]1N [DDD01245572]
0 (no)

Confirm if Emax reported for the molecule CC(C)(C)CNCC1(O)CCCN(Cc2ccccc2F)C1=O (stereo not drawn) [DDD01250810] is 90% or above.
0 (no)

Identify whether the reported Emax of the following molecule is 90% or greater: Cc1cc(CN2CCC(CNS(=O)(=O)c3ccc(Br)s3)CC2)c(C)o1 [DDD01027665]
0 (no)

Does the reported Emax for Cc1ccsc1CN(CCCN(C)C)Cc1ccccn1 [DDD01060996] fall at or above the 90% mark?
0 (no)

* * *

Reported Emax values for the following molecules.
test system: P. falciparum Dd2 (PfLuc) line expressing firefly luciferase, asexual blood stage; assay: microbe, parasite or virus in culture; assay type: cell-based, Plasmodium falciparum; conditions: Plasmodium falciparum, DD2; 11-pt dose response, 96hr; read-out: CDD P. falciparum Luciferase ABS 11-pt Reconfirmation Dose Response (96hr): Maximum inhibition (%)
// return numeric value only (unit: %, not printed)

These solved cases illustrate the format of a correct answer.
molecule="Cc1ccc(Oc2cc(F)ccc2O[C@@H]2CCC[C@@H](N)[C@H]2O)cc1 [DDD01059749]" measured_result=100
molecule="COc1ccccc1C1(CNCc2cccc(O)c2)CCOCC1 [DDD01075721]" measured_result=90.3
molecule="CN1CCC(C2CCN(Cc3cccc(-n4cccn4)c3)CC2)C1 (centres unmarked) [DDD01255349]" measured_result=100
molecule="CN1CCN(Cc2ccccc2Oc2nccc3occc23)CC1 [DDD01252026]" measured_result=85.7

Then this molecule:
Bench note: what Emax did O=C(CN1CCCC(c2ccn[nH]2)C1)Nc1nc2c(s1)CCCC2 (centres unmarked) [DDD01079490] show?
97

* * *

# reported IC50; entries follow
system: P. falciparum Dd2 (PfLuc) line expressing firefly luciferase, asexual blood stage; experiment: microbe, parasite or virus in culture; assay type: cell-based, Plasmodium falciparum; conditions: Plasmodium falciparum, DD2, read-out: CDD P. falciparum Luciferase ABS 11-pt Reconfirmation Dose Response (48hr): IC50 (μM); 11-pt dose response, 48hr
Respond with the bare value in µM.

# example entries with known answers
compound="CC(O)CN1CCC(CNCc2cccc(Br)c2)CC1 (centres unmarked) [DDD01304344]" quantity_unit=µM measured_result=3.63
compound="CN1CCC(C2CCN(Cc3cccc(-n4cccn4)c3)CC2)C1 (centres unmarked) [DDD01255349]" quantity_unit=µM measured_result=0.818
compound="Cc1ccc(Oc2cc(F)ccc2O[C@@H]2CCC[C@@H](N)[C@H]2O)cc1 [DDD01059749]" quantity_unit=µM measured_result=2.7

# input compound: Cc1cccnc1CN1CC[C@H](Oc2cccc(F)c2)[C@@](C)(O)C1 [DDD01060871] ; wanted: its IC50
1.92

Query (compound): CC(NCC1CCN(CCO)CC1)c1ccc(OC(F)(F)F)cc1 (centres unmarked) [DDD01073716] ; field requested: IC50
3.68
